A collection of compounds and their measured MIC (μM) SFM
Test system: Botrytis cinerea T-4
RUN_CONDITIONS: SFM, Table 18
Positions of bridges follow the written chain, without caps; N, C: chain ends. Residues, ends and D or L forms follow the SMILES beside them.
Give just the number in µM; leave the unit off.

Noted for C[C@H](NC(=O)CN)C(=O)N[C@H]1CSSC[C@@H](C(N)=O)NC(=O)[C@H](CCCCN)NC(=O)[C@H](CCCCN)NC(=O)[C@H](Cc2ccc(O)cc2)NC(=O)[C@H](Cc2ccccc2)NC(=O)[C@H](Cc2ccccc2)NC(=O)[C@H](Cc2ccccc2)NC(=O)[C@H](C)NC(=O)[C@H](Cc2ccccc2)NC(=O)CNC(=O)[C@H](Cc2ccccc2)NC(=O)CNC(=O)[C@H](CCC(N)=O)NC(=O)[C@H](CCCNC(=N)N)NC(=O)[C@H](Cc2c[nH]cn2)NC1=O [GMA5CA_V4] (H-GACHRQGFGFAFFFYKKC-NH2; disulfide 3-18; N-terminus assumed) : its MIC (μM) SFM reads 3

The compound identified as CC[C@H](C)[C@@H]1NC(=O)[C@H](CCCNC(=N)N)NC(=O)[C@H]([C@@H](C)O)NC(=O)[C@H](Cc2ccccc2)NC(=O)[C@H](Cc2c[nH]c3ccccc23)NC(=O)[C@H](Cc2ccccc2)NC(=O)[C@H](CCCNC(=N)N)NC(=O)[C@H](CCCNC(=N)N)NC(=O)[C@H](CC(C)C)NC(=O)[C@H](Cc2ccccc2)NC(=O)CNC(=O)[C@H](CCCCN)NC(=O)[C@@H](NC(=O)[C@H](CCCNC(=N)N)NC(=O)CNC(=O)CN)CSSC[C@@H](C(N)=O)NC1=O [GMA4C_V9] (H-GGRCKGFLRRFWFTRIC-NH2; disulfide 4-17; N-terminus assumed) registered its MIC (μM) SFM at 3

Looking up C[C@@H](O)[C@H](NC(=O)[C@H](CS)NC(=O)[C@H](Cc1ccccc1)NC(=O)[C@H](CS)NC(=O)[C@H](CCCNC(=N)N)NC(=O)[C@H](CCCNC(=N)N)NC(=O)[C@H](CCCNC(=N)N)NC(=O)[C@H](Cc1ccccc1)NC(=O)CNC(=O)[C@H](CCCNC(=N)N)NC(=O)[C@H](CS)NC(=O)[C@H](CCCNC(=N)N)NC(=O)CN)C(=O)N[C@H](C(=O)N[C@@H](Cc1c[nH]cn1)C(=O)N[C@@H](CS)C(N)=O)[C@@H](C)O [GMA4AC, reference compound] (H-GRCRGFRRRCFCTTHC-NH2) , I see its MIC (μM) SFM listed as 3

# context switch: different compound, same MIC (μM) SFM
The compound CC[C@H](C)[C@@H]1NC(=O)[C@H](CCCNC(=N)N)NC(=O)[C@@H](NC(=O)[C@H](CCCNC(=N)N)NC(=O)CNC(=O)[C@@H](N)CO)CSSC[C@@H](C(N)=O)NC(=O)[C@H](CC(N)=O)NC(=O)[C@H](CCCCN)NC(=O)[C@H]([C@@H](C)O)NC(=O)[C@H](Cc2ccccc2)NC(=O)[C@H](Cc2ccc(O)cc2)NC(=O)[C@H](Cc2c[nH]c3ccccc23)NC(=O)[C@H](CCCNC(=N)N)NC(=O)[C@H](Cc2ccccc2)NC(=O)[C@H](CC(C)C)NC1=O [GMA1C_V3] (H-SGRCRILFRWYFTKNC-NH2; disulfide 4-16; N-terminus assumed) showed MIC (μM) SFM equal to 1.5

Data origin: patent US20260209297A1
